measurement-conditions: 293.2 K; 101.33 kPa; Liquid; Cone and plate viscometry
Could you please mark 1 for values of viscosity below 500 mPa·s and -1 for values at or above it?

(Q) Lab log: compare recorded viscosity with 500 mPa·s; is it strictly lower for CC(=O)[O-].CCCCCCCCCCCCCC[P+](CCCCCC)(CCCCCC)CCCCCC [trihexyl(tetradecyl)phosphonium acetate] ?
(A) 1

(Q) Ok, now CCCC(=O)[O-].CCCCCCCCCCCCCC[P+](CCCCCC)(CCCCCC)CCCCCC [trihexyl(tetradecyl)phosphonium butyrate]
(A) 1

(Q) Ok, now CCCCCC(=O)[O-].CCCCCCCCCCCCCC[P+](CCCCCC)(CCCCCC)CCCCCC [trihexyl(tetradecyl)phosphonium hexanoate]
(A) 1

(Q) Ok, now CCCCCCCCCC(=O)[O-].CCCCCCCCCCCCCC[P+](CCCCCC)(CCCCCC)CCCCCC [trihexyltetradecylphosphonium decanoate]
(A) -1

---

measurement-conditions: 353.2 K; 101.33 kPa; Liquid; Cone and plate viscometry
endpoint: viscosity (mPa·s)
Numeric answer only, unit mPa·s assumed.

(Q) Would you mind telling me what viscosity value was observed for CC(=O)[O-].CCCCCCCCCCCCCC[P+](CCCCCC)(CCCCCC)CCCCCC [trihexyl(tetradecyl)phosphonium acetate] ?
(A) 20.95

(Q) Ok, now CCCCCCCCCC(=O)[O-].CCCCCCCCCCCCCC[P+](CCCCCC)(CCCCCC)CCCCCC [trihexyltetradecylphosphonium decanoate]
(A) 42.21

(Q) Ok, now CCCCCC(=O)[O-].CCCCCCCCCCCCCC[P+](CCCCCC)(CCCCCC)CCCCCC [trihexyl(tetradecyl)phosphonium hexanoate]
(A) 33.7

(Q) Ok, now CCCCCCCC(=O)[O-].CCCCCCCCCCCCCC[P+](CCCCCC)(CCCCCC)CCCCCC [trihexyl(tetradecyl)phosphonium octanoate]
(A) 37.98

(Q) Ok, now CCCC(=O)[O-].CCCCCCCCCCCCCC[P+](CCCCCC)(CCCCCC)CCCCCC [trihexyl(tetradecyl)phosphonium butyrate]
(A) 24.66

---

measurement-conditions: 348.2 K; 101.33 kPa; Liquid; Cone and plate viscometry
// viscosity lookup, one value per entry
Numeric answer only, unit mPa·s assumed.

Use the examples below as a reference point.
CCCCCCCC(=O)[O-].CCCCCCCCCCCCCC[P+](CCCCCC)(CCCCCC)CCCCCC [trihexyl(tetradecyl)phosphonium octanoate]
44.4
CCCCCC(=O)[O-].CCCCCCCCCCCCCC[P+](CCCCCC)(CCCCCC)CCCCCC [trihexyl(tetradecyl)phosphonium hexanoate]
39.52
CCCCCCCCCC(=O)[O-].CCCCCCCCCCCCCC[P+](CCCCCC)(CCCCCC)CCCCCC [trihexyltetradecylphosphonium decanoate]
49.28
CC(=O)[O-].CCCCCCCCCCCCCC[P+](CCCCCC)(CCCCCC)CCCCCC [trihexyl(tetradecyl)phosphonium acetate]
24.46

Read the next record carefully.
(Q) Would you mind telling me what viscosity value was observed for CCCC(=O)[O-].CCCCCCCCCCCCCC[P+](CCCCCC)(CCCCCC)CCCCCC [trihexyl(tetradecyl)phosphonium butyrate] ?
(A) 28.85

---

assay-method-text: molar heat capacity at constant pressure
measurement-conditions: 353.15 K; 101.33 kPa; Liquid; Small sample (50 mg) DSC
endpoint: molar heat capacity at constant pressure (J/K/mol)
Numeric answer only, unit J/K/mol assumed.

Use the examples below as a reference point.
CCCCCC(=O)[O-].CCCCCCCCCCCCCC[P+](CCCCCC)(CCCCCC)CCCCCC [trihexyl(tetradecyl)phosphonium hexanoate]
1219
CCCCCCCC(=O)[O-].CCCCCCCCCCCCCC[P+](CCCCCC)(CCCCCC)CCCCCC [trihexyl(tetradecyl)phosphonium octanoate]
1235.3
CCCC(=O)[O-].CCCCCCCCCCCCCC[P+](CCCCCC)(CCCCCC)CCCCCC [trihexyl(tetradecyl)phosphonium butyrate]
1181.9

Read the next record carefully.
(Q) Would you mind telling me what molar heat capacity at constant pressure value was observed for CCCCCCCCCC(=O)[O-].CCCCCCCCCCCCCC[P+](CCCCCC)(CCCCCC)CCCCCC [trihexyltetradecylphosphonium decanoate] ?
(A) 1278.8

Data origin, for the record: the NIST ThermoML archive (doi:10.1016/j.jct.2018.02.013)
